Taken from patent US12583861B2.

# measured.on: human TLR7 (Homo sapiens)
# Construct: host or cells: HEK293 (HEK-Blue hTLR7)
# Sequence (Q9NYK1 27-1049): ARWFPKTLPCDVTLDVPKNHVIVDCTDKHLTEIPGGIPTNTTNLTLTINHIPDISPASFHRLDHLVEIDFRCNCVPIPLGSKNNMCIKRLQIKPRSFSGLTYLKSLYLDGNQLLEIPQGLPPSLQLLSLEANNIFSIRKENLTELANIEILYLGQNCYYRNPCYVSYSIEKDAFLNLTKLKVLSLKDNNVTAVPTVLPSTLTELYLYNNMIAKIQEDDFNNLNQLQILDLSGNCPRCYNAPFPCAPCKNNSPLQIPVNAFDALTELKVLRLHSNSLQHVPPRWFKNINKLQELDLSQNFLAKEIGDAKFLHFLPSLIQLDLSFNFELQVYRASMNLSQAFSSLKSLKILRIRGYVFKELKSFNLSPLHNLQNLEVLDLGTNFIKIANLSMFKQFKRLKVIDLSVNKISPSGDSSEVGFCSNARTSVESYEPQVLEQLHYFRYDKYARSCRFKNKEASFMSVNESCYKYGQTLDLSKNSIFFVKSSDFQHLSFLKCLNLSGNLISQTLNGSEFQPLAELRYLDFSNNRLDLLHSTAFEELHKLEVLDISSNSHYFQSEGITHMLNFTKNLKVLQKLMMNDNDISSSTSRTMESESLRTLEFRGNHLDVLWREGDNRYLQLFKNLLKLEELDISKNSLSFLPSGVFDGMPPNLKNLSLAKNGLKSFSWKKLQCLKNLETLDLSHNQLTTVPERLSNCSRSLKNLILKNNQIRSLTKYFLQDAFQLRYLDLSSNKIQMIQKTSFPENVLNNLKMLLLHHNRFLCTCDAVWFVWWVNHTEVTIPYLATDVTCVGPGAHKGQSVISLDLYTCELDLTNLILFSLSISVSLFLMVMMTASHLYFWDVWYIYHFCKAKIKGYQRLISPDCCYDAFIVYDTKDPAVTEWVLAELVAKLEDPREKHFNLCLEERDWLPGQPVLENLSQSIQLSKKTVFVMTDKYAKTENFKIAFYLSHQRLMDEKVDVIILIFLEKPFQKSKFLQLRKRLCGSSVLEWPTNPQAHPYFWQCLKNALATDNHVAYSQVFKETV
# assay.notes: HEK-Blue hTLR7 reporter cell assay (SEAP, NF-kB/AP-1) for stimulation of human TLR7
# Format: cell-based
# condition.set: HEK-Blue hTLR7 cells, 24 h incubation, SEAP readout; read-out: TLR7_EC50
Structures can show the parent of a compound that is named as a salt.
observed.property: EC50 (nM)

Take a look at these entries with their results.
# compound, measured.on, experimental.result
data = [
    ("CCCCc1nc2c(N)nnc(-c3ccn(C)c3)c2n1Cc1ccc(OC)cc1 [Compound 11]", "human TLR7 (Homo sapiens)", 192),
    ("CCCCc1nc2c(N)nnc(OC(C)C)c2n1Cc1cccc(CNC(C)C)c1 [Compound 128, dihydrochloride salt]", "human TLR7 (Homo sapiens)", 5980),
    ("CCCCc1nc2c(N)nnc(OC(C)C)c2n1C[C@H]1CC[C@H](CN)CC1 [Compound 19, dihydrochloride]", "human TLR7 (Homo sapiens)", 32),
    ("CCCCc1nc2c(N)nnc(OCc3ccccc3)c2n1Cc1ccc(OC)cc1 [Compound 52]", "human TLR7 (Homo sapiens)", 551),
    ("CCCCc1nc2c(N)nnc(OC(C)CC)c2n1Cc1ccc(OC)cc1 (centres unmarked) [Compound 7]", "human TLR7 (Homo sapiens)", 46),
    ("CCCCc1nc2c(N)nnc(OC(C)C)c2n1Cc1ccc(CNC(=O)NCC)cc1 [Compound 113]", "human TLR7 (Homo sapiens)", 120),
    ("CCCCc1nc2c(N)nnc(CCC(C)C)c2n1C[C@H]1CC[C@H](N)CC1 [Compound 140]", "human TLR7 (Homo sapiens)", 1310),
    ("CCCCc1nc2c(N)nnc(/C=C/C(C)C)c2n1C[C@H]1CC[C@H](CN)CC1 [Compound 137]", "human TLR7 (Homo sapiens)", 145),
    ("CCCc1nc2c(N)nnc(OC(C)C)c2n1Cc1ccc(CN)cc1 [Compound 158]", "human TLR7 (Homo sapiens)", 717),
    ("CCCCc1nc2c(N)nnc(OC(C)C)c2n1Cc1ccc(CNCCOCCOCCOCCOC)cc1 [Compound 121]", "human TLR7 (Homo sapiens)", 86),
]

A. CCCCc1nc2c(N)nnc(C3CCCC3)c2n1Cc1ccc(OC)cc1 [Compound 16]
B. CCCCc1nc2c(N)nnc(OC(C)C)c2n1Cc1ccc(CN2CCOCC2)cc1 [Compound 102]
// compare measured EC50 between A and B ; output the lower one Answer with the label corresponding to your selection. B

I. CCCCc1nc2c(N)nnc(OC(C)C)c2n1Cc1ccc(CNCCC(=O)OC(C)(C)C)cc1 [Compound 119]
II. CCCCc1nc2c(N)nnc(OC(C)C)c2n1Cc1cccc(CNC2CC2)c1 [Compound 127, dihydrochloride salt]
Which has the higher EC50, I or II ? // respond with label for picked entry I
(I: 143 nM, II: 93 nM)

I. C=C(C)c1nnc(N)c2nc(CCCC)n(Cc3ccc(OC)cc3)c12 [Compound 17]
II. CCCCc1nc2c(N)nnc(OC(C)C)c2n1CCCCCN [Compound 77]
Identify the item whose EC50 is the smaller number: I or II Write down the label of the entry you select. I

1. CCCCc1nc2c(N)nnc(OC(C)C)c2n1C[C@H]1CC[C@H](CN)CC1 [Compound 20]
2. CCCCc1nc2c(N)nnc(OC(C)C)c2n1CCCCN(C(C)=O)C1CCOCC1 [Compound 151]
3. CCCCc1nc2c(N)nnc(N3CCC(c4ccccc4)C3)c2n1C (centres unmarked) [Compound 89]
Could you please sort these 3 entries by EC50 from high to low? Ranked list of labels, please, in the requested order. 2, 3, 1
(2: 11200 nM, 3: 1200 nM, 1: 28 nM)
